- method summary: Volume of distribution at steady state in mouse at 3 mg/kg, iv
- Type: ADME, organism-based
- Design: dose 3 mg/kg, route intravenous
- test settings: in vivo, read-out: Vdss
experimental readout: Vd (L/kg)
Give the quantity in L/kg, number only.

Using the record for `Cc1cn2c(-c3cn[nH]c3)cnc2c(Nc2cc([C@@H](C)N3C[C@@H](C)O[C@@H](C)C3)ns2)n1` , state its measured Vd.
1.5

---

- method summary: Oral bioavailability in rat at 30 mg/kg, po
- Format: ADME, organism-based
- test settings: in vivo
experimental readout: bioavailability (%)
Give the quantity in %, number only.

Using the record for `Cc1cn2c(-c3cn[nH]c3)cnc2c(Nc2cc([C@@H](C)N3C[C@@H](C)O[C@@H](C)C3)ns2)n1` , state its measured bioavailability.
72
